Recorded Tm, one value per entry.
- ASSAY: melting temperature; fluorescence melt of hairpins on a sequencing array, two-state fit, raised by 9.35 °C to match UV melts
- CONDITION_SET: sodium 0.088 M
Report the value in °C with no unit label.

PRIMARY_SEQUENCE: GCCTCCGAAAGGATGGC ((((((....))).)))
UNIT_DESCRIPTOR: °C
Tm: 57
//
PRIMARY_SEQUENCE: GTTCCCACGAAAGTGAAC (((..(((....))))))
UNIT_DESCRIPTOR: °C
Tm: 25.7
//
PRIMARY_SEQUENCE: GTGGTTCCGAAAGGACAC (((..(((....))))))
UNIT_DESCRIPTOR: °C
Tm: 40
//
PRIMARY_SEQUENCE: GAATCACGAAAGTGTTC (((.(((....))))))
UNIT_DESCRIPTOR: °C
Tm: 39.3
//
PRIMARY_SEQUENCE: GCGTTTCCACGC ((((....))))
UNIT_DESCRIPTOR: °C
Tm: 53.5

stdin: Supply reported Tm belonging to this sequence: GAATCCGAAAGGAACTTC ((((((....)))..)))
stdout: 33.1

stdin: Supply reported Tm belonging to this sequence: GTTCGCGAAAGCGAAAAC ((((((....)))..)))
stdout: 47.4

---

- ASSAY: folding enthalpy; higher = less favourable; fluorescence melt of hairpins on a sequencing array, two-state fit
- CONDITION_SET: sodium 0.088 M
Give Condition met when the value for folding enthalpy is at least -20 kcal/mol. Give Condition not met when it is less.

See these solved cases before continuing.
PRIMARY_SEQUENCE: GAGTTCGCGAAAGCGCTC (((..(((....))))))
ASSIGNED_CATEGORY: Condition met

PRIMARY_SEQUENCE: GTTTGTCGAAAGACAAC (((.(((....))))))
ASSIGNED_CATEGORY: Condition met

PRIMARY_SEQUENCE: GCTGTCGAAAGACACAGC ((((((....)))..)))
ASSIGNED_CATEGORY: Condition met

PRIMARY_SEQUENCE: GGTGGTCGAAAGACGACC (((.(((....))).)))
ASSIGNED_CATEGORY: Condition not met

PRIMARY_SEQUENCE: GCTTAGGAAACTAAGC ((((((....))))))
ASSIGNED_CATEGORY: Condition not met

stdin: Please check the record GCGAAAGGAAACTTTCAC (.(((((....))))).) and state if its folding enthalpy is at or above -20 kcal/mol.
stdout: Condition met

stdin: Please check the record GATTCACGAAAGTGCATC (((.(((....))).))) and state if its folding enthalpy is at or above -20 kcal/mol.
stdout: Condition not met

stdin: Please check the record GATCAAGCGTTTGATC ((((((....)))))) and state if its folding enthalpy is at or above -20 kcal/mol.
stdout: Condition not met

stdin: Please check the record GCCCCGCGAAAGCCGTGC ((.(.((....)).).)) and state if its folding enthalpy is at or above -20 kcal/mol.
stdout: Condition met

stdin: Please check the record GCAGTCGAAAGACGTGC ((((((....))).))) and state if its folding enthalpy is at or above -20 kcal/mol.
stdout: Condition met

stdin: Please check the record GATCCGGATCGGATC ((((((...)))))) and state if its folding enthalpy is at or above -20 kcal/mol.
stdout: Condition not met

stdin: Please check the record GTTGTTGGAAACAACAGC (.(((((....))))).) and state if its folding enthalpy is at or above -20 kcal/mol.
stdout: Condition met

---

- ASSAY: melting temperature; fluorescence melt of hairpins on a sequencing array, two-state fit, raised by 9.35 °C to match UV melts
- CONDITION_SET: sodium 0.088 M
Give true when the value for Tm is at least 50 °C. Give false when it is less.

See these solved cases before continuing.
PRIMARY_SEQUENCE: GCTATGCGAAAGCGTCGC ((.(.((....)).).))
ASSIGNED_CATEGORY: false
//
PRIMARY_SEQUENCE: GAGTCCGAAAGGACGCTC ((((((....)))..)))
ASSIGNED_CATEGORY: true
//
PRIMARY_SEQUENCE: CGAAAGAAATTTCG (((((....)))))
ASSIGNED_CATEGORY: false

stdin: Please check the record GTTTGAGGAAACTCGAAC (((.(((....))).))) and state if its Tm is at or above 50 °C.
stdout: false

stdin: Please check the record GGTATGCCGAAAGGCACC (((..(((....)))))) and state if its Tm is at or above 50 °C.
stdout: false

stdin: Please check the record GGCTAGGGAAACCTAACC ((.((((....)))).)) and state if its Tm is at or above 50 °C.
stdout: false

stdin: Please check the record GATCGACGCGTCGATC ((((((....)))))) and state if its Tm is at or above 50 °C.
stdout: true

stdin: Please check the record GATCGTGCGAAAGCAATC (((..(((....)))))) and state if its Tm is at or above 50 °C.
stdout: false

stdin: Please check the record GCCTATTCGAAAGAAGGC (((..(((....)))))) and state if its Tm is at or above 50 °C.
stdout: false

stdin: Please check the record GTTTCTGGAAACAGGAAC (((.(((....))).))) and state if its Tm is at or above 50 °C.
stdout: false

stdin: Please check the record GCGCAAGGAAACCTGCAC (.(((.(....).))).) and state if its Tm is at or above 50 °C.
stdout: false

stdin: Please check the record CGCGCCGGAAACGGGCG (((.(((....)))))) and state if its Tm is at or above 50 °C.
stdout: true

stdin: Please check the record GCTTAGCGAAAGCAAAGC ((((.((....)).)))) and state if its Tm is at or above 50 °C.
stdout: true

stdin: Please check the record GATCAAGACTTGATC ((((((...)))))) and state if its Tm is at or above 50 °C.
stdout: false

stdin: Please check the record CGGATCCGGAAACGGCCG (((..(((....)))))) and state if its Tm is at or above 50 °C.
stdout: false

stdin: Please check the record GGGGTACCGAAAGGTCCC (((..(((....)))))) and state if its Tm is at or above 50 °C.
stdout: true

stdin: Please check the record GCGGTGCTCCGC ((((....)))) and state if its Tm is at or above 50 °C.
stdout: true

stdin: Please check the record GATCCATGAATGGATC ((((((....)))))) and state if its Tm is at or above 50 °C.
stdout: true

---

- ASSAY: melting temperature; fluorescence melt of hairpins on a sequencing array, two-state fit, raised by 9.35 °C to match UV melts
- CONDITION_SET: sodium 0.088 M
Categorized via Tm: b0 = under 40 °C, b1 = from 40 °C up to 60 °C, b2 = 60 °C and over

See these solved cases before continuing.
PRIMARY_SEQUENCE: CGCACGGAAACGTCCGCG ((((((....)))..)))
ASSIGNED_CATEGORY: b1
--
PRIMARY_SEQUENCE: GCGGTGTGCCGC ((((....))))
ASSIGNED_CATEGORY: b2
--
PRIMARY_SEQUENCE: GCGACCGATCGC ((((....))))
ASSIGNED_CATEGORY: b1

stdin: Form: Item = GCCTTCGAAAGAAGGGGC ((((((....)))..))) ; Class = ?
stdout: b1

stdin: Form: Item = GGTGTCGGAAACGGCACC ((((.((....)).)))) ; Class = ?
stdout: b2

---

- ASSAY: folding enthalpy; higher = less favourable; fluorescence melt of hairpins on a sequencing array, two-state fit
- CONDITION_SET: sodium 0.088 M
Recorded folding enthalpy, one value per entry.
Report the value in kcal/mol with no unit label.

PRIMARY_SEQUENCE: GATCGTCATTACGATC ((((((....))))))
RESULT: -38.5
--
PRIMARY_SEQUENCE: GATCGCCGAAAGGCCATC (((.(((....))).)))
RESULT: -14.5
--
PRIMARY_SEQUENCE: GGTGTTGGAAACAATACC (((.(((....))).)))
RESULT: -39.7
--
PRIMARY_SEQUENCE: GCCGTCACGAAAGTGGGC (((..(((....))))))
RESULT: -19.5

stdin: Supply reported folding enthalpy belonging to this sequence: GATCATCTGCATGATC ((((((....))))))
stdout: -36

stdin: Supply reported folding enthalpy belonging to this sequence: GGACCAGCGAAAGCTTCC (((..(((....))))))
stdout: -10.3

stdin: Supply reported folding enthalpy belonging to this sequence: AAAGTGAAAACTTT (((((....)))))
stdout: -11.1
